# experimental.protocol: AUC(0 to last) in CD-1 mouse at 3 mg/kg, iv measured upto 24 hrs by LC-MS/MS analysis
# Assay type: ADME, organism-based
# Set-up: dose 3 mg/kg, time < 24 hrs, route iv
# condition.notes: CD-1, mouse, in vivo
endpoint.label: AUC(0-t) at 24 h (µg·h/mL)
Quick reminder: number only, in µg·h/mL, skip the unit.

Exercise: Input `CCn1cc(-c2cc(Cn3ccnc3)cc3c2CCN([C@H](c2cc(OC)ccn2)C2CC2)C3=O)c(C(F)(F)F)n1` , output reported AUC(0-t) at 24 h.
Solution: 2.56

###

# Tested on: K562
# experimental.protocol: Antiproliferative activity against human K562 cells assessed as growth inhibition incubated for 5 days by CellTiter-Glo reagent based assay
# Type: functional
# condition.notes: K562, 120 h, time 5 day
endpoint.label: GI50 (µM)
Quick reminder: number only, in µM, skip the unit.

Examples with answers:
- molecule: "CCn1cc(-c2cc(Cn3ccnc3)cc3c2CCN([C@H](c2cc(OC)ccn2)C2CC2)C3=O)c(C(F)(F)F)n1"
  target.of.assay: "K562"
  unit.annotation: "µM"
  GI50: 1.5
- molecule: "COc1cnc2c(c1)[C@@H](N1CCOc3c(cc(Cn4ccnc4)cc3-c3cn(C)nc3C(F)(F)F)C1=O)CCC2"
  target.of.assay: "K562"
  unit.annotation: "µM"
  GI50: 2.8
- molecule: "COc1ccc2c(c1)C(N1CCOc3c(cc(Cn4ccnc4C)cc3-c3cn(C)nc3C(F)(F)F)C1=O)CCC2 (stereo unspecified)"
  target.of.assay: "K562"
  unit.annotation: "µM"
  GI50: 3
- molecule: "COc1cc(CN2CNc3c(cc(Cn4ccn(C)c4=N)cc3-c3ccc(F)cc3C)C2=O)cc(OC)c1"
  target.of.assay: "K562"
  unit.annotation: "µM"
  GI50: 18

# evaluate next
Exercise: Please report the measured GI50 for `CCc1cnc2c(c1)[C@@H](N1CCOc3c(cc(Cn4ccnc4)cc3-c3cn(C)nc3C(F)(F)F)C1=O)CCC2` tested on K562.
Solution: 3.9

###

// reported GI50 per item
# System: MOLM-13
# experimental.protocol: Antiproliferative activity against human MOLM-13 cells assessed as growth inhibition incubated for 5 days by CellTiter-Glo reagent based assay
# Type: functional
# condition.notes: MOLM-13, 120 h, time 5 day
Quick reminder: number only, in nM, skip the unit.

Examples with answers:
- compound: "COc1cc(CN2CCc3c(cc(Cn4ccn(C)c4=N)cc3-c3ccc(F)cc3C)C2=O)cc(OC)c1"
  unit.annotation: "nM"
  obs.value: 78
- compound: "COc1cc(CNC(=O)c2cc(Cn3ccn(C)c3=N)cc(-c3ccc(F)cc3C)c2)cc(OC)c1"
  unit.annotation: "nM"
  obs.value: 480
- compound: "CCc1cc(OC)c2nccc(N3CCOc4c(cc(Cn5ccnc5)cc4-c4cn(C)nc4C(F)(F)F)C3=O)c2c1"
  unit.annotation: "nM"
  obs.value: 1100
- compound: "COc1cc(CN2CNc3c(cc(Cn4ccn(C)c4=N)cc3-c3ccc(F)cc3C)C2=O)cc(OC)c1"
  unit.annotation: "nM"
  obs.value: 320
- compound: "COc1cc(Cn2cnc3c(-c4ccc(F)cc4C)cc(Cn4ccn(C)c4=N)cc3c2=O)cc(OC)c1"
  unit.annotation: "nM"
  obs.value: 720
- compound: "CCn1cc(-c2cc(Cn3ccnc3)cc3c2NCN([C@H](c2cc(OC)ccn2)C2CC2)C3=O)c(C(F)(F)F)n1"
  unit.annotation: "nM"
  obs.value: 52

Exercise: Please report the measured GI50 for `COc1cc(CN2COc3c(cc(Cn4ccn(C)c4=N)cc3-c3ccc(F)cc3C)C2=O)cc(OC)c1` tested on MOLM-13.
Solution: 350

Exercise: Please report the measured GI50 for `CCc1cc(OC)c2nccc(N3CCc4c(cc(Cn5ccnc5)cc4-c4cn(C)nc4C(F)(F)F)C3=O)c2c1` tested on MOLM-13.
Solution: 31

Exercise: Please report the measured GI50 for `COc1cc(CN2CCOc3c(cc(Cn4ccn(C)c4=N)cc3-c3ccc(F)cc3C)C2=O)cc(OC)c1` tested on MOLM-13.
Solution: 100

Exercise: Please report the measured GI50 for `CCc1cnc2c(c1)[C@@H](N1CCOc3c(cc(Cn4ccnc4)cc3-c3cn(C)nc3C(F)(F)F)C1=O)CCC2` tested on MOLM-13.
Solution: 12

Exercise: Please report the measured GI50 for `COc1cc(CN2CCCc3c(cc(Cn4ccn(C)c4=N)cc3-c3ccc(F)cc3C)C2=O)cc(OC)c1` tested on MOLM-13.
Solution: 1100

Exercise: Please report the measured GI50 for `COc1cc(CN2CCNc3c(cc(Cn4ccn(C)c4=N)cc3-c3ccc(F)cc3C)C2=O)cc(OC)c1` tested on MOLM-13.
Solution: 250

Exercise: Please report the measured GI50 for `CCn1cc(-c2cc(Cn3ccnc3)cc3c2OCCN([C@H]2CCOc4ccc(OC)cc42)C3=O)c(C(F)(F)F)n1` tested on MOLM-13.
Solution: 59

Exercise: Please report the measured GI50 for `CCc1cc(C(=O)NC)c2nccc(N3CCc4c(cc(Cn5ccnc5)cc4-c4cn(C)nc4C(F)(F)F)C3=O)c2c1` tested on MOLM-13.
Solution: 32

Exercise: Please report the measured GI50 for `COc1cnc2c(c1)[C@@H](N1CCOc3c(cc(Cn4ccnc4)cc3-c3cn(C)nc3C(F)(F)F)C1=O)CCC2` tested on MOLM-13.
Solution: 10

Exercise: Please report the measured GI50 for `COc1cc(CN2Cc3c(cc(Cn4ccn(C)c4=N)cc3-c3ccc(F)cc3C)C2=O)cc(OC)c1` tested on MOLM-13.
Solution: 6000

Exercise: Please report the measured GI50 for `COc1cnc2cccc(N3CCOc4c(cc(Cn5ccnc5)cc4-c4cn(C)nc4C(F)(F)F)C3=O)c2c1` tested on MOLM-13.
Solution: 940

Exercise: Please report the measured GI50 for `CCn1cc(-c2cc(Cn3ccnc3C)cc3c2OCCN([C@H]2CCOc4ccc(OC)cc42)C3=O)c(C(F)(F)F)n1` tested on MOLM-13.
Solution: 51

Exercise: Please report the measured GI50 for `CCn1cc(-c2cc(Cn3ccnc3)cc3c2OCCN([C@H](c2cc(OC)ccn2)C2CC2)C3=O)c(C(F)(F)F)n1` tested on MOLM-13.
Solution: 110

Exercise: Please report the measured GI50 for `COc1cc(CN2CC(=O)Nc3c(cc(Cn4ccn(C)c4=N)cc3-c3ccc(F)cc3C)C2=O)cc(OC)c1` tested on MOLM-13.
Solution: 630

Exercise: Please report the measured GI50 for `CCn1cc(-c2cc(Cn3ccnc3)cc3c2CCN([C@H](c2cc(OC)ccn2)C2CC2)C3=O)c(C(F)(F)F)n1` tested on MOLM-13.
Solution: 37

Exercise: Please report the measured GI50 for COc1ccc2c(c1)C(N1CCOc3c(cc(Cn4ccnc4C)cc3-c3cn(C)nc3C(F)(F)F)C1=O)CCC2 (stereo not drawn) tested on MOLM-13.
Solution: 47

Exercise: Please report the measured GI50 for `CCc1cc(OC)c2nccc(N3COc4c(cc(Cn5ccnc5)cc4-c4cn(C)nc4C(F)(F)F)C3=O)c2c1` tested on MOLM-13.
Solution: 580
